Biological target: CCR2 (Homo sapiens)
Construct: Membranes were prepared from THP-1 cells; endogenous in cells
Test: CCR2 receptor membrane binding assay ([125I]MCP-1, THP-1 cell membranes, SPA beads)
Conditions: THP-1 membranes, [125I]MCP-1, bound radioactivity determined after 8 h; read-out: hKi
measurement.kind: Ki (nM)

// worked examples, Ki included
compound	experimental.system	test.result
Cc1c(C(=O)N2CCC(N3CCC(NS(C)(=O)=O)CC3)CC2)ncnc1N1CCc2ccc(C(F)(F)F)cc2C1 [Example 37]	CCR2 (Homo sapiens)	18
COC1COCCC1NC1CCN(C(=O)c2ncnc(N3CCN(c4cc(Cl)cc(Cl)c4)CC3)c2C)CC1 (stereo not drawn) [Example 62t]	CCR2 (Homo sapiens)	17
Cc1c(C(=O)N2CCC(N[C@@H]3CCOC[C@@H]3F)CC2)ncnc1N1COc2ccc(C(F)(F)F)cc2C1 [Example 69l]	CCR2 (Homo sapiens)	14
Cc1c(C(=O)N2CCN(C)CC2)ncnc1N1CCc2ccc(C(F)(F)F)cc2C1 [Example 70]	CCR2 (Homo sapiens)	3560
COC1COCCC1NC1CCN(C(=O)c2ncnc(N3CCN(c4cc(F)cc(F)c4)CC3)c2C)CC1 (stereo not drawn) [Example 62ak]	CCR2 (Homo sapiens)	145

(A) COc1c(C(=O)N2CCC(N[C@H]3CCOC[C@H]3OC)CC2)ncnc1N1CCc2ccc(C(F)(F)F)cc2C1 [Example 69b]
(B) COC1COCCC1NC1CCN(C(=O)c2ncnc(N3CCN(c4cccc(Cl)c4Cl)CC3)c2C)CC1 (stereo not drawn) [Example 62x]
In: Could you point out whether the larger Ki belongs to A or to B ? // return label of chosen record
Out: B
(B: 18 nM, A: 9 nM)

(a) COC1COCCC1NC1CCN(C(=O)c2ncnc(N3CCc4ccccc4CC3)c2C)CC1 (stereo not drawn) [Example 54]
(b) Cc1c(C(=O)N2CCC(N3CCOCC3)CC2)ncnc1N1CCc2ccc(C(F)(F)F)cc2C1 [Example 82]
(c) COC1COCCC1NC1CCN(C(=O)c2ncnc(N3CCN(c4c(C)cccc4C)CC3)c2C)CC1 (stereo not drawn) [Example 62ai]
(d) CO[C@@H]1COCC[C@@H]1NC1CCN(C(=O)c2ncnc(N3COc4ccc(C(F)(F)F)cc4C3)c2C)CC1 [Example 69e]
(e) COC1COCCC1NC1CCN(C(=O)c2ncnc(N3CCCC(c4ccc(F)cc4)C3)c2C)CC1 (stereo not drawn) [Example 32]
In: Provide the items ranked by increasing Ki. Return the labels ranked in the requested order, please.
Out: d, c, b, a, e

(A) COC1COCCC1NC1CCN(C(=O)c2ncnc(N3CCCC(c4ccc(C(F)(F)F)cc4)C3)c2C)CC1 (stereo not drawn) [Example 36]
(B) Cc1c(C(=O)N2CCC(N3CCC(N(C)S(C)(=O)=O)CC3)CC2)ncnc1N1CCC(c2cccc(Cl)c2)CC1 [Example 27]
In: Which gives the smaller Ki number: A or B ? // return label of chosen record
Out: B
(B: 661 nM, A: 1270 nM)

* * *

Target: CCR2 (Homo sapiens, UniProt P41597)
Construct: Membranes were prepared from THP-1 cells; endogenous in cells; host or cells: THP-1 (human acute monocytic leukaemia cells), membrane preparation
Sequence (P41597 whole entry): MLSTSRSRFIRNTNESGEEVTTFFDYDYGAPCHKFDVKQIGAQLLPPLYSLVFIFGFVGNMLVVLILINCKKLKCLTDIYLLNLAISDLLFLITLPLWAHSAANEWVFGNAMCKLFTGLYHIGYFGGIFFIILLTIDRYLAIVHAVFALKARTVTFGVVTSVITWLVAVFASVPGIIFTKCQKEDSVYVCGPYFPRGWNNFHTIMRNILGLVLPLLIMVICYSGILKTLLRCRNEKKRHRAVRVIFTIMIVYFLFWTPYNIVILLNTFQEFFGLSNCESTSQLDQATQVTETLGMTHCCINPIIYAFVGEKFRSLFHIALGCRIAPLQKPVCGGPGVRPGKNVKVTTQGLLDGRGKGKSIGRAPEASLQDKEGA
Experiment: CCR2 receptor membrane binding assay ([125I]MCP-1, THP-1 cell membranes, SPA beads)
Settings: THP-1 membranes, [125I]MCP-1, bound radioactivity determined after 8 h; read-out: hKi
pKi: −log10 of the molar value.
measurement.kind: pKi

// worked examples, pKi included
compound	measurement.kind	test.result
COC1COCCC1NC1CCN(C(=O)c2ncnc(N3CCN(c4ccc5c(c4)OCCO5)CC3)c2C)CC1 (stereo not shown) [Example 62ad]	pKi	6.47
CO[C@@H]1COCC[C@@H]1NC1CCN(C(=O)c2ncnc(N3CCc4ccc(C)cc4C3)c2C)CC1 [Example 69f]	pKi	7.77
CO[C@@H]1COCC[C@@H]1NC1CCN(C(=O)c2cc(N3CCc4ccc(C(F)(F)F)cc4C3)ncn2)CC1 [Example 62a]	pKi	6.25

(I) COC1COCCC1NC1CCN(C(=O)c2ncnc(N3CCN(c4ccc(C(F)(F)F)cn4)CC3)c2C)CC1 (stereo not shown) [Example 56]
(II) Cc1c(C(=O)N2CCC(N3CCC(N(C)S(C)(=O)=O)CC3)CC2)ncnc1N1CCC(c2ccccc2F)C1 (stereo not shown) [Example 44]
(III) CO[C@H]1COCC[C@H]1NC1CCN(C(=O)c2ncnc(N3CCc4ccc(Br)cc4C3)c2C)CC1 [Example 69z]
(IV) COC1COCCC1NC1CCN(C(=O)c2ncnc(N3CCC4(CC3)CC(=O)c3cc(Br)ccc3O4)c2C)CC1 (stereo not shown) [Example 62i]
In: Provide the items ranked by increasing pKi. Return the labels ranked in the requested order, please.
Out: II, I, IV, III
(II: 5.41, I: 5.99, IV: 6.74, III: 7.89)
